Reference source for all entries: the nanobody polyreactivity screen of Harvey et al. (2022)

# test_method_notes: yeast display, Sf9 membrane polyspecificity reagent, FACS + sequencing; frameworks hold sequencing errors
readout_kind: polyreactivity (PSR sort gate)

sequence_data: QVQLVESGGGLVQAGGSLRLSCAASGRIFVYYAMGWYRQAPGKERELVAAITYSVDSTYYADSVKGRFTISRDNAKNTVYLQMNSLKPEDTAVYYCATDVDWAYGYQYEYWGQGTQVTVSS
value_measured: low polyreactivity
//
sequence_data: QVQLVESGGGLVQAGGSLRLSWAASGGPFSSYDMGWYRQAPGTERELVADITNGGSTNFADSVKGRCTISRDNAKNTVYLQMNSLKPEDTAVYYCATDSYPGLNPDFDYWGHGTQVTVSS
value_measured: low polyreactivity
